Listed molecules paired with reported RP-LC retention time
run_description: gradient 5% acetonitrile 3 min, to 50% in 2 min, to 85% in 15 min, held 3 min, 100 µL/min
applied_conditions: column: Zorbax Extend-C18 2.1 x 50 mm; eluents: water / acetonitrile, 0.1% formic acid
Respond with the bare value in s.

Reference set (4 entries):
- molecule: "Nc1ccc(C(=O)C(=O)c2ccc(N)cc2)cc1"
  obs_value: 730
- molecule: "Cn1cnc(S(=O)(=O)N2CCC(c3noc(COCc4ccccc4)n3)C2)c1 (centres undefined)"
  obs_value: 761
- molecule: "O=C(NCCCN1CCCCC1)C1=C2CCCN2c2ccc(F)cc2S1(=O)=O"
  obs_value: 606
- molecule: "Cc1cnc(-c2ccncc2)n1CC1CN(Cc2cccn2C)C1"
  obs_value: 692

Task: Item under review: COc1cc(OC)cc(C(=O)NCC(O)Cc2ccccc2)c1 (centres undefined) . Reported RP-LC retention time?
Result: 706

Task: # get_value(readout='RP-LC retention time', item= CC(=O)c1cccc(NC(=O)c2cc(Cl)ccc2Cl)c1 )
Result: 848

Task: Consider the molecule Cc1csc(NC(=O)C2CCCN(S(=O)(=O)c3c[nH]c(C(=O)N4CCCC4)c3)C2)n1 (centres undefined) and give its measured RP-LC retention time.
Result: 714

Task: Can you share its RP-LC retention time? I mean this molecule: CN(C)c1ccc(CCCNC(=O)Cc2ccc(Cl)cc2)cc1
Result: 604

Task: Item under review: O=C(Nc1cccc(-c2nnc3n2CCCC3)c1)C1CCCCC1 . Reported RP-LC retention time?
Result: 699

Task: If you can, please state the reported RP-LC retention time value of O=C(c1ccco1)N1CCN=C1SCc1cccc(C(F)(F)F)c1 .
Result: 849

Task: What value of RP-LC retention time has been reported for the following molecule? CN(CC1CCOC1)C(=O)c1ccc(F)c(F)c1 (centres undefined)
Result: 683

Task: Form field: reported RP-LC retention time of CCSc1nnc(NC(=O)CSc2nnc(-c3ccco3)o2)s1
Result: 726

Task: If you can, please state the reported RP-LC retention time value of COc1ccc(Cl)cc1NC(=O)C1CCCN(c2ncnc3c2nc2n3CCCCC2)C1 (centres undefined) .
Result: 934

Task: Fill blank: measured RP-LC retention time of the molecule O=C(NCCCn1c(-c2ccncc2)nc2cccnc21)Nc1ccc(Br)cc1F is ____.
Result: 718

Task: May I ask what RP-LC retention time has been recorded for COC(=O)c1ccc(Cn2nc(C3CC3)c3cnn(-c4cccc(Cl)c4)c3c2=O)cc1 ?
Result: 1170

Task: // query RP-LC retention time value for entry O=C(Cn1cc(C(=O)C2CC2)c2ccccc21)NCc1ccc2c(c1)OCCCO2
Result: 831

Task: Which RP-LC retention time is listed for COc1ccc(CNC(=O)C2CCCN2S(=O)(=O)c2cc3c(cc2C)NC(=O)CO3)cc1 (centres undefined) ?
Result: 728

Task: Would you kindly share the measured RP-LC retention time for CCc1nnc2ccc(-c3noc(Cc4ccc(Cl)cc4)n3)cn12 ?
Result: 932

Task: RP-LC retention time lookup needed for Cc1nc(C)c(C(=O)N2CCCC(c3nn(C)c(=O)n3-c3ccccc3)C2)s1 (centres undefined) , thanks.
Result: 641

Task: Field request: RP-LC retention time | item: Cc1ccc(-c2cc(C(=O)O)n(C)c2)cc1
Result: 856

Task: May I ask what RP-LC retention time has been recorded for COc1cccc(-n2ccc(=O)c(-c3nc(-c4ccc5c(c4)OCO5)no3)n2)c1 ?
Result: 799
